Target: T1, CTNI quality control recombinant protein (PK2-CTNI-1, 170120, produced by the applicant) (human, UniProt P19429 2-210, limits assumed)
T1 construct: also called cardiac troponin I
T1 sequence (P19429 2-210 limits assumed): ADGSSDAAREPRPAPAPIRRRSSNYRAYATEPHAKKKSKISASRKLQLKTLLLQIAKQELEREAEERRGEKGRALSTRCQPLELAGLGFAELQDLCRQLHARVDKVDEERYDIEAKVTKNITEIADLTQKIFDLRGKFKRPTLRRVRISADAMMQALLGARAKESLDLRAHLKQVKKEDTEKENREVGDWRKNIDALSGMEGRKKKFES
Test: AMC sensor kinetics, antibody captured, cTnI analyte
measurement_label: koff (s⁻¹)

Mutation 1-6 (antibody, V domains shown, built as for Mutation 1) VH: EVQLQQSGAELVKPGASVKLSCTASGFNIKDYFMHWMKQRTEQGLDWIGRIDPEDGETKYAPEFQGKATITADTSSNTAYLQLSTLTSEDTAVYYCARYYSSYVPFVYWGQGTLVTASA VL: DVVMTQTPLSLSVSLGDQASISCRSSQSILYSNRHTYLHWYLQKPGQSPKLLIFQVSNRFSGVPDRFSGSGSGTDFTLKINRVEAEDLGVYFCSQSTHIPYTFGSGTKLEIKR; 0.000266
Mutation 1-1 (antibody, V domains shown, built as for Mutation 1) VH: EVQLQQSGAELVKPGASVKLSCTASGFNLKDYYMHWMKQRTEQGLDWIGRIDPEDAETKYAPEFQGKATITADTSSNTAYLQLSTLTSEDTAVYYCARYYSSYLPFVYWGQGTLVTASA VL: DVVMTQTPLSLSVSLGDQASISCRSSQSILYSNRHTYLHWYLQKPGQSPKLLIFQLSNRFSGVPDRFSGSGSGTDFTLKINRVEAEDLGVYFCSQSTHLPYTFGSGTKLEIKR; 0.000311
Mutation 1-37 (antibody, V domains shown, built as for Mutation 1) VH: EVQLQQSGAELVKPGASVKLSCTASGFNIKDYFMHWMKQRTEQGLDWIGRIDPEDGETKYAPEFQGKATITADTSSNTAYLQLSTLTSEDTAVYYCARYYSSYVPFVYWGQGTLVTASA VL: DVVMTQTPLSLSVSLGDQASISCRSSQSILYSNRHTYLHWYLQKPGQSPKLLIFQVSNRFSGVPDRFSGSGSGTDFTLKINRVEAEDLGVYFCSQSTHLPYTFGSGTKLEIKR; 0.000267

# credit: patent US20210340231A1
